subjectOfTest: T1, human EphA5 (Homo sapiens, UniProt P54756)
T1 construct: a protein of the extracellular region of each human Eph receptor fused with the SEAP protein and the His tag; made in house; host or cells: Expi293F cells (culture supernatant)
experimentalDetails: Selectivity ELISA of humanized antibodies for human Eph receptor
Type: binding
measurementSetup: coated protein 1 nM
propertyMeasured: hEphA5-SEAP-: absorbance at 450 nm, percentage with respect to hEphA4-SEAP-His as 100% (%)

molecule	testResult
90 (antibody, V domains shown, constant regions without entry; synthetic humanized antibody light chain variable region sequence; synthetic humanized antibody heavy chain variable region sequence) VL: DIQMTQSPSSLSASVGDRVTITCRASENIYRNLAWYQQKPGKAPQLLLYAATNLADGVPSRFSGSGSGTDYTLTISSLQPEDFATYYCQHFWGTPWTFGQGTKVEIK VH: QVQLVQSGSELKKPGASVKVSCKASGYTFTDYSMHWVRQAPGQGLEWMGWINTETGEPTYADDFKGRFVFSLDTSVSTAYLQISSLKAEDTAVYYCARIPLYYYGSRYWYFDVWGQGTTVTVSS	5.1
160 (antibody, V domains shown, synthetic humanized antibody heavy chain variable region sequence; synthetic humanized antibody light chain variable region sequence) VH: QIQLVQSGSELKKPGASVKVSCKASGYTFTDYSMHWVRQAPGQGLKWMGWINTETGEPTYADDFKGRFVFSLDTSVSTAYLQISSLKAEDTAVYYCARIPLYYYGSRYWYFDVWGQGTTVTVSS VL: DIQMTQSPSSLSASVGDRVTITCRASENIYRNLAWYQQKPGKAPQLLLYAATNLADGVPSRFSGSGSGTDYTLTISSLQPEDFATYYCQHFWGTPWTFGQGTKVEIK	6.5
71 (antibody, V domains shown, synthetic humanized antibody heavy chain variable region sequence; synthetic humanized antibody light chain variable region sequence) VH: QIQLVQSGSELKKPGASVKVSCKASGYTFTDYSMHWVRQAPGQGLKWMGWINTETGEPTYAQGFTGRFVFSLDTSVSTAYLQISSLKAEDTAVYYCARIPLYYYGSRYWYFDVWGQGTTVTVSS VL: EIVMTQSPATLSVSPGERATLSCRASENIYRNLAWYQQKPGQSPRLLIYAATNLADGIPARFSGSGSGTEYTLTISSLQSEDFAVYYCQHFWGTPWTFGQGTKVEIK	5.6
96 (antibody, V domains shown, constant regions without entry; synthetic humanized antibody light chain variable region sequence; synthetic humanized antibody heavy chain variable region sequence) VL: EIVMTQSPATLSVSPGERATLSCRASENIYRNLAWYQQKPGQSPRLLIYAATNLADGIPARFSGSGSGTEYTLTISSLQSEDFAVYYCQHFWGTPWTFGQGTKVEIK VH: QVQLVQSGSELKKPGASVKVSCKASGYTFTDYSMHWVRQAPGQGLKWMGWINTETGEPTYADDFKGRFVFSLDTSVSTAYLQISSLKAEDTAVYYCARIPLYYYGSRYWYFDVWGQGTTVTVSS	6.0
81 (antibody, V domains shown, constant regions without entry; synthetic humanized antibody light chain variable region sequence; synthetic humanized antibody heavy chain variable region sequence) VL: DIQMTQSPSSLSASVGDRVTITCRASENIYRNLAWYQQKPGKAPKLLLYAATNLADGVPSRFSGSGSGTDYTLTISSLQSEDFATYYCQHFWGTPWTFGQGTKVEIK VH: QVQLVQSGSELKKPGASVKVSCKASGYTFTDYSMHWVRQAPGQGLEWMGWINTETGEPTYAQGFTGRFVFSLDTSVSTAYLQISSLKAEDTAVYYCARIPLYYYGSRYWYFDVWGQGTTVTVSS	4.9
136 (antibody, V domains shown, synthetic humanized antibody heavy chain variable region sequence; synthetic humanized antibody light chain variable region sequence) VH: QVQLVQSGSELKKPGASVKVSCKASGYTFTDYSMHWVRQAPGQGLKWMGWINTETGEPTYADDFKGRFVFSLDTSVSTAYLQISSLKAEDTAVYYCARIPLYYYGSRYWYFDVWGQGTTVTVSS VL: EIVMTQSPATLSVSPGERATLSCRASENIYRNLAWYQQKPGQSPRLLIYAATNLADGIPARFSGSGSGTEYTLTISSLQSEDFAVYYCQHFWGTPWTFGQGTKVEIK	5.2
94 (antibody, V domains shown, constant regions without entry; synthetic humanized antibody light chain variable region sequence; synthetic humanized antibody heavy chain variable region sequence) VL: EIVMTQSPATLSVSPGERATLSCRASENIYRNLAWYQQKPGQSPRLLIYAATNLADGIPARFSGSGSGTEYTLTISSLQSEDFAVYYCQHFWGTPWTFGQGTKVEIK VH: QVQLVQSGSELKKPGASVKVSCKASGYTFTDYSMHWVRQAPGQGLKWMGWINTETGEPTYAQGFTGRFVFSLDTSVSTAYLQISSLKAEDTAVYYCARIPLYYYGSRYWYFDVWGQGTTVTVSS	6.5
